measured_on: Ssc1 (yeast mtHsp70), wild type, hexahistidine-tagged, purified (S. cerevisiae, UniProt P0CS90 24-654)
Sequence (P0CS90 24-654): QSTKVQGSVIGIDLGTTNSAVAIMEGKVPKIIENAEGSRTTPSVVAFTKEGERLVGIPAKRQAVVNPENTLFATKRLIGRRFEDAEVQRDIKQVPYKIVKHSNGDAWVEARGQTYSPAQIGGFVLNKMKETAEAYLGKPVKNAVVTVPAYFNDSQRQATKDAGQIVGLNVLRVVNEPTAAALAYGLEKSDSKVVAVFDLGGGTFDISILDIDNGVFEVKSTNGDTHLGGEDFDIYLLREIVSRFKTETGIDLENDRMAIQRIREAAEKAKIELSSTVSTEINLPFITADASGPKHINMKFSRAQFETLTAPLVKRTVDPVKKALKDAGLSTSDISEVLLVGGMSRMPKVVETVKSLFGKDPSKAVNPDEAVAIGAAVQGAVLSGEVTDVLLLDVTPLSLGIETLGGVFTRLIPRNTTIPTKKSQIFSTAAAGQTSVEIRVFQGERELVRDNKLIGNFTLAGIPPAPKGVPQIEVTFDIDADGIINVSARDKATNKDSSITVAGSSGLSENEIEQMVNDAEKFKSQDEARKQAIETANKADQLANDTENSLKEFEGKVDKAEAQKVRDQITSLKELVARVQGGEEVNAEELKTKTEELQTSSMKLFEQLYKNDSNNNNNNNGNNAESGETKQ
test_protocol: fluorescence polarisation
No end group written: not given here.
measure: pKd
Keep in mind that pKd stands for -log10 of concentration in molar terms.

Output pKd of CALLLSAPRR (also: fluorescein label, position not given here) [fluorescein-labeled P5 peptide]
6.70
